Reference source: patent US8134015B2

molecular target: rat NaPi-2b (Rattus norvegicus, UniProt Q9JJ09); construct: expressed in transfected cells; host or cells: Xenopus oocytes injected with cRNA; test: Sodium-dependent phosphate uptake of Xenopus oocytes which expressed NaPi-2b (32P); type: cell-based; details: Xenopus oocytes expressing rat NaPi-2b, 32P radioactive phosphorus; read-out: IC50 (phosphate uptake inhibitory activity)
measurement.kind: IC50 (µM)

A = COc1ccc(C(=O)Nc2ccccc2C(=O)N/N=C/c2cccc(O)c2)cc1 [Compound 50]
B = O=C(Nc1ccc(Cl)cc1C(=O)N/N=C/c1cccc(F)c1)c1cccc(CSCCS(=O)(=O)O)c1 [Compound 691]
C = COc1ccc(C(=O)Nc2scc(C)c2C(=O)N/N=C/c2cccc(C)c2)cc1OC [Compound 518]
Query block: // TODO: order the 3 molecules above by IC50, descending # list labels per requested ordering
Result block: B, A, C
(B: 97 µM, A: 19.5 µM, C: 1.52 µM)

====

Target: rat NaPi-2b (Rattus norvegicus)
Sequence (Q9JJ09 1-695): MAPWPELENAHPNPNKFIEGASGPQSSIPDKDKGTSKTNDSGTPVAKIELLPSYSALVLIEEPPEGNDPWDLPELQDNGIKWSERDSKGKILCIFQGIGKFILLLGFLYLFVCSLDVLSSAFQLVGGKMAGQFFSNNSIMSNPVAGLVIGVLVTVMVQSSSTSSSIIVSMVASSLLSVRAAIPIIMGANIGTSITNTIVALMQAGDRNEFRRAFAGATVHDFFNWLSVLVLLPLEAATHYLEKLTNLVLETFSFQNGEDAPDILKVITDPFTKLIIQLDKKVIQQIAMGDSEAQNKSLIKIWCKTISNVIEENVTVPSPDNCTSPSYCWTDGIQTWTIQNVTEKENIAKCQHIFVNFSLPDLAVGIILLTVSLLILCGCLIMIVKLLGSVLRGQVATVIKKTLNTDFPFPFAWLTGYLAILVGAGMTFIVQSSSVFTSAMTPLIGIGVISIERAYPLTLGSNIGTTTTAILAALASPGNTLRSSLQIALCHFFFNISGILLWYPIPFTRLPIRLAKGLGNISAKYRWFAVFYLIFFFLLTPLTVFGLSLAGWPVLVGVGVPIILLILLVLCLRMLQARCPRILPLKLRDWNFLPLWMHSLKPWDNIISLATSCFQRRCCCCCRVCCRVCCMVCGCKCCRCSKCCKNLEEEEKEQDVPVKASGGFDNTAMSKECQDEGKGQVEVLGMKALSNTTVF
Experiment: Sodium-dependent phosphate uptake of Xenopus oocytes which expressed NaPi-2b (32P)
Conditions: Xenopus oocytes expressing rat NaPi-2b, 32P radioactive phosphorus; read-out: IC50 (phosphate uptake inhibitory activity)
pIC50: −log10 of the molar value.
measurement.kind: pIC50

Cc1ccc(/C=N/NC(=O)c2cc(N3CCCCC3)ccc2NC(=O)c2cccc(CN3CCN(CCO)CC3)c2)cc1 [Compound 865]    5.83

P = O=C(Nc1ccc(Br)cc1C(=O)N/N=C/c1cccc(F)c1)c1cccc(CSc2ccncc2)c1 [Compound 195]
Q = Cc1cccc(/C=N/NC(=O)c2cc(Cl)ccc2NC(=O)c2cccc(CSCCS(=O)(=O)O)c2)c1 [Compound 692]
R = CCN(CC)CC(O)COc1ccc(NC(=O)c2cccc(CN(CC(C)O)CC(C)O)c2)c(C(=O)N/N=C/c2ccc(Cl)c(C(F)(F)F)c2)c1 (stereo not shown) [Compound 952]
Query block: Let's sort these by pIC50, smallest first. Go ahead? # list labels per requested ordering
Result block: Q, R, P

====

biological target: UniProt:Q9JJ09; experiment: Sodium-dependent phosphate uptake of Xenopus oocytes which expressed NaPi-2b (32P); settings: Xenopus oocytes expressing rat NaPi-2b, 32P radioactive phosphorus; read-out: IC50 (phosphate uptake inhibitory activity)
pIC50: −log10 of the molar value.
measurement.kind: pIC50

Observe how each entry below is paired with its result.
COc1ccc(/C=N/NC(=O)c2cc(Br)ccc2NC(=O)c2ccc(CN3CCC(CO)CC3)cc2)cc1    4.72
Cc1ccc(/C=N/NC(=O)c2cc(Br)ccc2NC(=O)c2ccc(CN3CCC(CCO)CC3)cc2)cc1C    5.08
CCc1ccc(C(=O)Nc2ccc(Br)cc2C(=O)N/N=C/c2ccc(C)cc2)cc1    5.50
COCCOc1cc(NC(=O)c2cccc(CSCC(O)CO)c2)c(C(=O)N/N=C/c2ccc(Cl)c(C(F)(F)F)c2)cc1OCCOC (centres unmarked)    5.03
O=C(Nc1ccc(Br)cc1C(=O)N/N=C/c1ccc(Cl)c(C(F)(F)F)c1)c1ccco1    6.34

a = Cc1csc(NC(=O)c2cccc(CN(CCO)CCO)c2)c1C(=O)N/N=C/c1ccc(F)cc1
b = O=C(Nc1ccc(Cl)cc1C(=O)N/N=C/c1cccc(F)c1)c1cccc(CSc2nc[nH]n2)c1
c = COc1cccc(/C=N/NC(=O)c2cc(Br)ccc2NC(=O)c2ccc(CN3CCC(N4CCCCC4)CC3)cc2)c1
d = O=C(Nc1sccc1C(=O)N/N=C/c1ccc(F)cc1)c1cccc(CSCCCO)c1
e = O=C(Nc1sc2c(c1C(=O)N/N=C/c1cccc(F)c1)CCCC2)c1cccc(CN2CCC(N3CCCCC3)CC2)c1
Query block: Let's sort these by pIC50, smallest first. Go ahead? # list labels per requested ordering
Result block: d, c, e, a, b
(d: 4.73, c: 5.04, e: 5.37, a: 5.69, b: 5.96)

1 = O=C(Nc1ccc(Cl)cc1C(=O)N/N=C/c1ccc(OC(F)(F)F)cc1)c1cccc(CSCC(O)CO)c1 (centres unmarked)
2 = COc1cc(OC)cc(C(=O)Nc2ccccc2C(=O)N/N=C/c2cccc(O)c2)c1
Query block: Of the two listed items, 1 and 2 , which carries the larger pIC50 figure? Identify your selection by its label.
Result block: 1
(1: 5.72, 2: 5.12)

1 = CCN(CC)CCNCc1cccc(C(=O)Nc2sc3c(c2C(=O)N/N=C/c2ccc(C)cc2)CCC3)c1
2 = Cc1ccc(/C=N/n2c(-c3cccc(CSCCO)c3)nc3ccc(Br)cc3c2=O)cc1
3 = Cc1ccc(/C=N/NC(=O)c2c(C)csc2NC(=O)c2cccc(CN(CCO)CCO)c2)cc1C
4 = COc1ccc(/C=N/NC(=O)c2cc(N3CCN(C)CC3)ccc2NC(=O)c2cccc(CSCCO)c2)cc1
Query block: Rank descending by pIC50. # list labels per requested ordering
Result block: 3, 2, 1, 4
(3: 5.88, 2: 5.35, 1: 5.04, 4: 4.69)

====

target: rat NaPi-2b (Rattus norvegicus, UniProt Q9JJ09); test: Sodium-dependent phosphate uptake of Xenopus oocytes which expressed NaPi-2b (32P); conditions: Xenopus oocytes expressing rat NaPi-2b, 32P radioactive phosphorus; read-out: IC50 (phosphate uptake inhibitory activity)
measurement.kind: IC50 (µM)

COc1ccc(C(=O)Nc2ccc(Br)cc2C(=O)N/N=C/c2cccn2C)cc1OC    11.1

a = O=C(Nc1ccc(Cl)cc1C(=O)N/N=C/c1ccc(Cl)c(C(F)(F)F)c1)c1cccc(CN(CCO)CCO)c1
b = COc1ccc(/C(C)=N/NC(=O)c2cc(Br)ccc2NC(=O)c2cccc(CN(CC(C)O)CC(C)O)c2)cc1 (stereo not shown)
Query block: Compare a and b and name the one whose reported IC50 is smaller. Identify your selection by its label.
Result block: a
(a: 0.57 µM, b: 7.88 µM)

====

target: rat NaPi-2b (Rattus norvegicus, UniProt Q9JJ09); construct: expressed in transfected cells; host or cells: Xenopus oocytes injected with cRNA; experiment: Sodium-dependent phosphate uptake of Xenopus oocytes which expressed NaPi-2b (32P); assay type: cell-based; conditions: phosphate uptake, oocytes expressing rat NaPi-2b; 300 μM, determined from inhibition curve
measurement.kind: inhibition at 300 µM (%)

Observe how each entry below is paired with its result.
Cc1csc(C(=O)N/N=C/c2cccc(F)c2)c1NC(=O)c1cccc(CN2CCN(CCO)CC2)c1    53
Cc1cccc(/C=N/NC(=O)c2cc(Br)ccc2NC(=O)c2ccc(CSc3cccc(F)c3)cc2)c1    65.8

A = Cc1ccc(CNNC(=O)c2cc(Br)ccc2NC(=O)c2ccccn2)cc1
B = Cc1ccc(/C=N/NC(=O)c2scc(C)c2NC(=O)c2cccc(CN3CCN(CCO)CC3)c2)cc1
Query block: Compare A and B and name the one whose reported inhibition at 300 µM is smaller. Identify your selection by its label.
Result block: B
(B: 36.9%, A: 60%)

====

molecular target: rat NaPi-2b (Rattus norvegicus, UniProt Q9JJ09); assay: Sodium-dependent phosphate uptake of Xenopus oocytes which expressed NaPi-2b (32P); conditions: Xenopus oocytes expressing rat NaPi-2b, 32P radioactive phosphorus; read-out: IC50 (phosphate uptake inhibitory activity)
measurement.kind: IC50 (µM)

Observe how each entry below is paired with its result.
O=C(Nc1sc2c(c1C(=O)N/N=C/c1ccc(F)cc1)CCCC2)c1cccc(CN2CCC(CO)CC2)c1 [Compound 641]    2.92
CCN(CC)CCNCc1cccc(C(=O)Nc2sc3c(c2C(=O)N/N=C/c2ccc(F)cc2)CCC3)c1 [Compound 813]    6.25
Cc1ccc(/C=N/NC(=O)c2c(NC(=O)c3cccc(CN(CC(C)O)CC(C)O)c3)sc3c2CCC3)cc1 (stereo not drawn) [Compound 805]    4.76
Cc1ccc(/C=N/NC(=O)c2ccccc2NC(=O)c2cccnc2)cc1C [Compound 133]    0.88
COc1ccc(/C=N/NC(=O)c2cc(N3CCCCC3)ccc2NC(=O)c2cccc(CSCCC(=O)O)c2)cc1 [Compound 890]    3.91
COc1ccc(/C=N/NC(=O)c2cc(N3CCCCC3)ccc2NC(=O)c2cccc(CSCCO)c2)cc1 [Compound 885]    1.24
COc1ccc(/C=N/NC(=O)c2cc(Cl)ccc2NC(=O)c2ccc(OC)c(OC)c2)cc1OC [Compound 126]    6.43
Cc1cccc(/C=N/NC(=O)c2cc(Cl)ccc2NC(=O)c2cccc(CSc3nc[nH]n3)c2)c1 [Compound 391]    1.02

I = Cc1csc(NC(=O)c2cccc(CN3CCC4(CC3)OCCO4)c2)c1C(=O)N/N=C/c1cccc(F)c1 [Compound 835]
II = Cc1csc(NC(=O)c2cccc(CN3CCC(O)CC3)c2)c1C(=O)N/N=C/c1ccc(F)cc1 [Compound 595]
III = Cc1ccc(/C=N/NC(=O)c2c(NC(=O)c3cccc(CN(CC(C)O)CC(C)O)c3)sc3c2CCCC3)cc1 (stereo not drawn) [Compound 628]
IV = CCN(CC)CCN(C)Cc1cccc(C(=O)Nc2sccc2C(=O)N/N=C/c2cccc(F)c2)c1 [Compound 667]
Query block: Rank descending by IC50. # list labels per requested ordering
Result block: IV, I, II, III
(IV: 30.5 µM, I: 6.46 µM, II: 3.87 µM, III: 1.29 µM)

A = COc1cccc(CNNC(=O)c2cc(Br)ccc2NC(=O)c2ccc(CN3CCC(N4CCCCC4)CC3)cc2)c1 [Compound 378]
B = CCN(CC)CCN(C)Cc1ccc(C(=O)Nc2ccc(Br)cc2C(=O)N/N=C/c2ccc(Cl)c(C(F)(F)F)c2)cc1 [Compound 289]
Query block: Compare A and B and name the one whose reported IC50 is smaller. Identify your selection by its label.
Result block: B
(B: 2.89 µM, A: 4.35 µM)
